tested on: MIA PaCa-2 cells; experiment: In-vitro anti-proliferative activity in combination with gemcitabine on MIA PaCa-2 cells; format: cell-based; conditions: with 20 nM gemcitabine, 72 h after dosing, intracellular ATP content
metric: IC50 (nM)

Worked examples follow.
compound	IC50 / nM
CN1Cc2cc(Nc3ncc(C#N)c(Nc4cccc(N=S(C)(C)=O)n4)n3)cc3c2[C@H](CCC3)C1 (single isomer, unassigned)	0.245
Cc1ccc(Nc2nc(Nc3cc4c5c(c3)CN(C)CC5CCC4)ncc2C#N)nc1N=S(C)(C)=O (stereo not shown)	1.5
COc1ccc(Nc2nc(Nc3cc4c5c(c3)CN(C)CC5CCC4)ncc2C#N)nc1N=S(C)(C)=O (stereo not shown)	1.4

(a) CN1Cc2cc(Nc3ncc(C#N)c(Nc4ccc(Cl)c(N=S(C)(C)=O)n4)n3)cc3c2C(CCC3)C1 (stereo not shown)
(b) CN1Cc2cc(Nc3ncc(C#N)c(Nc4ccc(F)c(N=S(C)(C)=O)n4)n3)cc3c2C(CCC3)C1 (stereo not shown)
(c) CN1Cc2cc(Nc3ncc(C#N)c(Nc4cccc(N=S(C)(C)=O)n4)n3)cc3c2[C@@H](CCC3)C1 (single isomer, unassigned)
(d) CN1Cc2cc(Nc3ncc(C#N)c(Nc4nc(N=S(C)(C)=O)ccc4F)n3)cc3c2C(CCC3)C1 (stereo not shown)
Query string: Put the entries in order of IC50, starting with the largest number. Output spec: labels arranged per the requested ranking.
Result string: d, c, a, b
(d: 29 nM, c: 6.4 nM, a: 3.1 nM, b: 1.1 nM)

Hey, just so you know, these numbers are from patent US12655127B2.
